test system: human CXCR4 (Homo sapiens)
Sequence (P61073 whole entry): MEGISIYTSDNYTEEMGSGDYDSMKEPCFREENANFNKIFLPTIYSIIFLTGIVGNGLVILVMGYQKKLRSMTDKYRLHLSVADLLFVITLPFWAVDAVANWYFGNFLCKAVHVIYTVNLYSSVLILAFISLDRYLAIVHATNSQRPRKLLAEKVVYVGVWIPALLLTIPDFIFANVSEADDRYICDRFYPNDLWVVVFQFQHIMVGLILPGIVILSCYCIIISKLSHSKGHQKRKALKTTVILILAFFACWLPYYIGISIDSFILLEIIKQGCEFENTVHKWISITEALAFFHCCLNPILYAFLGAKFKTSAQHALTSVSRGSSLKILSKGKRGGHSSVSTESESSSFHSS
test protocol: CXCR4/CXCL12 binding, HTRF format, single concentration (Example 23)
Set-up: host or cells: HEK293 (Tag-lite CXCR4 cells, frozen aliquots, transient expression)
condition info: 15 nM CXCR4R fluorescent probe, 3 hours, HEK293 Tag-lite CXCR4 cells
Peptide text beside a SMILES is read from it.
Recorded Percent Inhibition of CXCR4/CXCL12 Binding (400 nM peptide) values for a group of compounds are listed next.
Numeric answer only, unit % assumed.

INSERT INTO assay_data (compound, obs_value) VALUES
  ('CC(C)C[C@H](NC(=O)[C@H](CO)NC(=O)[C@H](CO)NC(=O)[C@H](CCCNC(=N)N)NC(=O)[C@@H](NC(=O)[C@H](CO)NC(=O)[C@H](Cc1c[nH]cn1)NC(=O)[C@H](Cc1c[nH]cn1)NC(=O)[C@H](Cc1ccc(O)cc1)NC(=O)[C@@H](N)CCCNC(=N)N)C(C)C)C(=O)N[C@@H](CCCNC(=N)N)C(=O)N1CCC[C@H]1C(=O)N[C@@H](Cc1ccc(O)cc1)C(=O)N[C@H](C(=O)N[C@@H](CCCCN)C(=O)O)[C@@H](C)O [compound 11] (H-RYHHSVRSSLRPYTK-OH; N-terminus and C-terminus assumed)', '−9');

Under human CXCR4 (Homo sapiens), report Percent Inhibition of CXCR4/CXCL12 Binding (400 nM peptide) for CC(C)C[C@H](N)C(=O)N[C@@H](CCCNC(=N)N)C(=O)N[C@@H](CCCNC(=N)N)C(=O)N[C@@H](Cc1ccc(O)cc1)C(=O)N[C@@H](Cc1c[nH]cn1)C(=O)N[C@@H](Cc1c[nH]cn1)C(=O)N[C@@H](CO)C(=O)N[C@H](C(=O)N[C@@H](CCCNC(=N)N)C(=O)N[C@@H](CO)C(=O)N[C@@H](CO)C(=O)O)C(C)C [compound 29] (H-LRRYHHSVRSS-OH; N-terminus and C-terminus assumed)
14
